Source listed as PubChem BioAssay.

Kindly state NADPH fluorescence slope for each of the entries shown.
testedSystem: Voltage-gated potassium channel subunit beta-2 (Rattus norvegicus) (UniProt P62483)
Sequence (P62483 whole entry, looked up): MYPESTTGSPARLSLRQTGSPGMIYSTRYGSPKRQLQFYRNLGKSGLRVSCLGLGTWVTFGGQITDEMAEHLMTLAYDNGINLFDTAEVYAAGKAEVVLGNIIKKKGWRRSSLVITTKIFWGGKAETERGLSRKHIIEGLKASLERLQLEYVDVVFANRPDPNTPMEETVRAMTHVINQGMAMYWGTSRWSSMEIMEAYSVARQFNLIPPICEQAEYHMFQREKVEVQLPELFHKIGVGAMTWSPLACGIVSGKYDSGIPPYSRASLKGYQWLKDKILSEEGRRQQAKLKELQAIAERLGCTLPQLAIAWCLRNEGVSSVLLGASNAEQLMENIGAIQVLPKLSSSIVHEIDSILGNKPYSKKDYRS
assayText: KvBeta positive modulators, primary screen, biochemical, NADPH fluorescence (AID 623);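 also: fluorescence intensity change per second fitted from 20 to 320 s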
particulars: Recombinant KvBeta, NADPH fluorescence decrease slope, 10 min; at 10 µM; stronger effect = lower value
The source made the active and inactive calls.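 The calls were made as follows: active = NADPH fluorescence slope more negative than the mean of all samples by about 3 SD, 99.7% confidence; inactive = the rest.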

Note to self: NADPH fluorescence slope recorded for CN(C)CC(O)COc1ccc(C(C)(C)c2ccc(OCC(O)CN(C)C)cc2)cc1 (stereo unspecified) was -3.1e-05 (inactive)

List reported NADPH fluorescence slope for each of these compounds:
1. Clc1ccccc1-c1nn2c(-c3ccccn3)nnc2s1
2. Cc1ccc(CC2CC(=O)N(c3ccc4c(c3)OCCO4)C2=O)cc1 (stereo unspecified)
3. COc1ccccc1OCC(=O)Nc1ccc(S(=O)(=O)Nc2cc(C)nc(C)n2)cc1
4. CC(=O)Oc1cc(C(C)C)c(OCCN(C)C)cc1C
5. CC1=C(C)C(=O)C(CCCCC#CCCCC#CCO)=C(C)C1=O
6. CCN(CC)CCN1C(=O)C(O)=C(C(=O)c2ccco2)C1c1ccccn1 (stereo unspecified)
7. CCOC(=O)c1c(C)n(C)c2ccc(OC)c(NC(=O)CN3CCN(Cc4ccccc4)CC3)c12

Output:
["-0.000155 (inactive)", "-0.000111 (inactive)", "1.9e-05 (inactive)", "-5.3e-05 (inactive)", "-2.1e-05 (inactive)", "-0.000163 (inactive)", "-0.000147 (inactive)"]

List reported NADPH fluorescence slope for each of these compounds:
1. Cc1nn(-c2ccccc2)c2c1C(c1ccc(F)cc1F)C(C#N)=C(N)O2 (stereo unspecified)
2. C=CCc1ccccc1OCC(O)CNC(C)C (stereo unspecified)
3. CC(C)Cc1nc(NCCN2CCOCC2)c(C#N)c2c1COC(C)(C)C2

Output:
1. -2.3e-05 (inactive)
2. -2.4e-05 (inactive)
3. 2.3e-05 (inactive)

###

assayText: inhibitors of TNFa-induced NFkB p65 translocation, primary screen, imaging, HUVEC, MLSMR starter and 10KST1 sets (AID 438);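 also: compound added about 3h40 before a 20 min TNFalpha stimulation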
particulars: HUVEC TNFa-induced p65 nuclear translocation; measured here: nuclei count (cytotoxicity indicator), at 2.08 µM
Kindly state cell count for each of the entries shown.

These recorded examples may help you get a feel for the data.
Note to self: cell count recorded for COC(=O)c1ccc(-c2sc3nc(N4CCOCC4)c4c(c3c2N)CCCC4)o1 was 683

Note to self: cell count recorded for Cn1c(=O)c2c(nc(SCCN3CCCCC3)n2Cc2ccc(Cl)cc2)n(C)c1=O was 498

Note to self: cell count recorded for C=CCSc1nnc2n(CCc3ccccc3)c(=O)c3c4c(sc3n12)COC(C)(C)C4 was 492

Note to self: cell count recorded for N#Cc1nc(COc2ccc(Br)cc2)oc1N1CCCC1 was 482

With those in mind, consider the next compound.
Note to self: cell count recorded for Cc1cc(-c2cc(-c3ccc(Cl)cc3)nc(N)c2C#N)co1 was 560

###

testedSystem: Voltage-gated potassium channel subunit beta-2 (Rattus norvegicus)
assayText: KvBeta positive modulators, primary screen, biochemical, NADPH fluorescence (AID 623);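 also: fluorescence intensity change per second fitted from 20 to 320 s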
particulars: Recombinant KvBeta, NADPH fluorescence decrease slope, 10 min; at 10 µM; stronger effect = lower value
reportedEndpoint: NADPH fluorescence slope
One number for each entry.

These recorded examples may help you get a feel for the data.
Note to self: NADPH fluorescence slope recorded for COC(=O)c1n[nH]c2ccccc12 was -1.1e-05

Note to self: NADPH fluorescence slope recorded for COC(=O)c1ccc(C2C(C(=O)c3cc4ccccc4o3)=C(O)C(=O)N2CCCN(C)C)cc1 (stereo unspecified) was -7.3e-05

Note to self: NADPH fluorescence slope recorded for CCN(CC)CCN1C(=O)C(=O)/C(=C(/O)c2ccc(C)cc2)C1c1cccnc1 (stereo unspecified) was -5.7e-05

List reported NADPH fluorescence slope for each of these molecules:
1. CC(C)C(=O)N1CCN(c2nc(-c3ccccc3)c3c(c2C#N)CCCC3)CC1
2. O=C(O)CCN(CCC(=O)O)c1nnc(SCc2ccccc2)s1
3. Nc1ccc2[nH]ncc2c1

Output:
-9.2e-05
-6e-05
-6.9e-05

###

Kindly state inhibition for each of the entries shown.
testedSystem: Dual specificity protein phosphatase 6 (Homo sapiens)
assayText: DUSP6 inhibitors restoring Erk phosphorylation by chemical complementation, primary imaging in DUSP6-transfected HeLa (AID 609);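 as to inhibition: phospho-Erk level distribution per well compared with pooled transfected vehicle control wells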
particulars: HeLa MKP-3 transfected, phospho-Erk imaging KS statistic; at 10 µM; stronger effect = higher value; cells stimulated with TPA for 15 min
One number for each entry, in %.

Note to self: inhibition recorded for CCc1cccc(C)c1N(C(=O)Cn1c(=O)[nH]c2ccccc21)C(C)COC (stereo not given) was 5.57

Note to self: inhibition recorded for CC(C)(C)c1ccc(O)c(N)c1 was -3.95

Note to self: inhibition recorded for CC(NC(=O)Nc1nccs1)(C(F)(F)F)C(F)(F)F was -0.233

List reported inhibition for each of these compounds:
1. COC(=O)c1ccc(Cn2cnc3c(sc4nc(N5CCOCC5)c5c(c43)CCCC5)c2=O)o1
2. CCC1(C)Cc2c(sc3[nH]c(=O)[nH]c(=O)c23)CS1 (stereo not given)
3. Cc1[nH]c2ccc3c(ncn3CCC#N)c2c1C
4. CCOc1c(C)cc2[nH]c(CCC(=O)O)nc2c1C
5. CC(NCCC(c1ccccc1)c1ccccc1)c1ccccc1 (stereo not given)

Output:
1: -7.01; 2: 1.75; 3: 18.2; 4: 7.42; 5: 13.3

List reported inhibition for each of these compounds:
1. COC(=O)c1cccc(Nc2cc(C)nc(-c3ccccc3O)n2)c1
2. Cn1nnnc1SCC1=C(C(=O)O)N2C(=O)[C@@H](NC(=O)[C@H](O)c3ccccc3)[C@H]2SC1
3. CCOC(=O)c1c(C)n(C)c2ccc(OC)c(NC(=O)CN3CCSCC3)c12
4. COc1ccccc1N1CCN(C(=O)c2c(C)cc(=O)oc2C)CC1

Output:
9.91
11.3
5.42
11.4

List reported inhibition for each of these compounds:
1. COc1ccc(OC)c(C2NC(=O)c3sc(=S)n(-c4ccccc4)c3N2)c1 (stereo not given)
2. COC(=O)c1sccc1NC(=O)c1c(C)cc(=O)oc1C
3. N#CC1=C(SCC(=O)c2ccccc2)NC2=C(C(=O)CCC2)C1c1ccco1 (stereo not given)

Output:
-6.86
-8.76
1.42

List reported inhibition for each of these compounds:
1. O=C(NO)c1ccccc1O
2. CC1CN(C2CCN(S(=O)(=O)Cc3ccccc3)CC2)CC(C)O1 (stereo not given)
3. CCCCc1c(C)c2ccc(OCC(C)=O)cc2oc1=O

Output:
5.79
5.57
47.6

###

testedSystem: Voltage-gated potassium channel subunit beta-2 (Rattus norvegicus)
assayText: KvBeta positive modulators, primary screen, biochemical, NADPH fluorescence (AID 623);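 also: fluorescence intensity change per second fitted from 20 to 320 s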
particulars: Recombinant KvBeta, NADPH fluorescence decrease slope, 10 min; at 10 µM; stronger effect = lower value
Activity calls are given as the source filed them.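 Rule for the calls: active = NADPH fluorescence slope more negative than the mean of all samples by about 3 SD, 99.7% confidence; inactive = the rest.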
reportedEndpoint: NADPH fluorescence slope

These recorded examples may help you get a feel for the data.
Note to self: NADPH fluorescence slope recorded for CC(=O)OCC(=O)[C@@]1(O)[C@H](C)C[C@H]2[C@@H]3CCC4=CC(=O)C=C[C@]4(C)[C@@]3(F)[C@@H](O)C[C@@]21C was -3.4e-05 (inactive)

Note to self: NADPH fluorescence slope recorded for COc1cccc(COc2nc3c(c(=O)n(C)c(=O)n3C)n2C)c1 was -1.3e-06 (inactive)

Note to self: NADPH fluorescence slope recorded for COc1ccccc1N1CCN(C(=O)c2c(C)cc(=O)oc2C)CC1 was -8.2e-05 (inactive)

Note to self: NADPH fluorescence slope recorded for O=C(N(c1ccccc1)c1ccccc1)n1ccnc1 was -5.7e-05 (inactive)

Further cases:
Note to self: NADPH fluorescence slope recorded for O/N=C1\CCc2cc(Cl)ccc21 was -0.000244 (inactive)

###

assayText: inhibitors of E-selectin induction by TNFa, primary screen, imaging, HUVEC, immunofluorescence, MLSMR starter and 10KST1 sets (AID 487);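 also: signal is fraction of cell area covered by stained E-selectin grains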
particulars: HUVEC TNFalpha-induced E-selectin immunofluorescence imaging, at 2 µM; stronger effect = higher value
Please note: Fulfilled applies when inhibition is -40% or greater, and Not fulfilled applies otherwise.

Task: Threshold query (inhibition >= -40%) on Cc1cccc(Nc2ncnc3ccccc23)c1
Output: Fulfilled

Now consider the entry below.
Task: Threshold query (inhibition >= -40%) on C(=N\n1cnnc1)/c1cccnc1
Output: Not fulfilled

###

assayText: DUSP6 inhibitors restoring Erk phosphorylation by chemical complementation, primary imaging in DUSP6-transfected HeLa (AID 609)
particulars: HeLa MKP-3 transfected, phospho-Erk imaging KS statistic; measured here: nuclear pErk red intensity z-score; at 10 µM; stronger effect = higher value; cells stimulated with TPA for 15 min
reportedEndpoint: z-score

These recorded examples may help you get a feel for the data.
Note to self: z-score recorded for COC(=O)C1=C(N)Oc2cc(C)oc(=O)c2C1c1ccncc1 (stereo not drawn) was 1.46

Note to self: z-score recorded for O=C(O)C1CSC(CCc2ccccc2)N1 (stereo not drawn) was 1.29

Note to self: z-score recorded for COc1ccc(CNc2oc(COc3ccccc3Cl)nc2C#N)cc1 was -0.0244

Note to self: z-score recorded for CCCOc1ccc(N2C(=O)CC(N(CCC)C(=O)CCC(=O)O)C2=O)cc1 (stereo not drawn) was -0.093

Note to self: z-score recorded for CCCCCc1nc2sc3c(c2c(=O)n1N)CCC3 was 1.67

Note to self: z-score recorded for CCOC(=O)C1(c2nc(N)cs2)COC(=O)C1 (stereo not drawn) was -1.03

Note to self: z-score recorded for CN1CCc2nc(SCC(=O)Nc3ccc(Cl)cc3)c(C#N)cc2C1 was -1.16

Note to self: z-score recorded for COC(=O)COn1c(SCC(=O)OC)nc2ccccc2c1=O was 0.27

List reported z-score for each of these molecules:
1. CCOc1cc2nc(-c3ccc(OC)c(OC)c3)nc(N3CCOCC3)c2cc1OC
2. O=C1OC(Nc2ccc(Br)cn2)c2ccccc21 (stereo not drawn)
3. COc1nc(NS(=O)(=O)c2ccc(C)cc2)nc(C)c1Cl
4. CCN1CCN(c2nc3c(C)cccn3c(=O)c2/C=C(\C#N)S(=O)(=O)c2ccccc2)CC1
5. O=C(NCCCn1ccnc1)C(Cc1ccccc1)N1C(=O)c2ccccc2C1=O (stereo not drawn)
6. N#CC1=C(N)N2C(=C(C#N)C1c1ccccc1)Sc1ccccc12 (stereo not drawn)

Output:
-2.63
0.497
-0.341
2.23
-0.334
-0.35
